Target: Endothelial lipase (EL) (Homo sapiens (Human))
Test: Endothelial lipase (EL) enzymatic assay with fluorescent substrate A10070 in DMPG vesicles
Format: biochemical
Description: Endothelial lipase (EL) and hepatic lipase (HL) activities were measured using a fluorescent substrate, A10070, (Invitrogen, CA) doped into an artificial vesicle containing DMPG (Avanti Polar Lipids) as the excipient. […] The enzymatic assay was measured using 384-well white Optiplates. […] The reaction rates were measured on a Gemini plate reader with an excitation wavelength of 490 nm and an emission wavelength of 530 nm. […]
measured_metric: log10(IC50) (log10 of the value in nM)
// do not treat as linear: log10 of IC50, unit nM

Sample records with log10(IC50):
compound: COCCS(=O)(=O)C(C(=O)NCC(=O)NC1CC1)c1nc2cc(F)c(-c3ccccc3NC(=O)OC)cc2s1 (stereo not shown)
measured_metric: log10(IC50)
quantitative_result: 1.96
--
compound: COCCOC(=O)Nc1ccc(-c2cc3sc(C(C(=O)NCC(=O)NC4CC4)S(=O)(=O)CCOC)nc3cc2F)cn1 (stereo not shown)
measured_metric: log10(IC50)
quantitative_result: 0.70
--
compound: COCCS(=O)(=O)C(C(=O)NCC(=O)NC1CC1)c1nc2cc(-c3ccn(C)c(=O)c3)ccc2s1 (stereo not shown)
measured_metric: log10(IC50)
quantitative_result: 1.32
--
compound: COCCOC(=O)Nc1ccc(-c2cc3sc(C(C(=O)NCC(=O)NC4CC4)S(=O)(=O)C4CC4)nc3cc2F)cc1 (stereo not shown)
measured_metric: log10(IC50)
quantitative_result: 0.30
--
compound: COCCS(=O)(=O)C(C(=O)NCC(=O)NC1CC1)c1nc2c(F)cc(-c3ccc(C(F)(F)F)nc3)cc2s1 (stereo not shown)
measured_metric: log10(IC50)
quantitative_result: 1.41

Tell me the measured log10(IC50) of COCCS(=O)(=O)C(C(=O)NCC(=O)NCC(F)(F)F)c1nc2ccc(-c3ccc(F)nc3)cc2s1 (stereo not shown) , please. 2.30

Tell me the measured log10(IC50) of O=C(CNC(=O)C(c1nc2cc(F)c(-c3ccc(=O)n(Cc4ccccc4)c3)cc2s1)S(=O)(=O)CCC(F)(F)F)NC1CC1 (stereo not shown) , please. 0.70

* * *

Molecular target: Endothelial lipase (EL) (Homo sapiens (Human), UniProt Q9Y5X9)
Sequence (Q9Y5X9 21-500): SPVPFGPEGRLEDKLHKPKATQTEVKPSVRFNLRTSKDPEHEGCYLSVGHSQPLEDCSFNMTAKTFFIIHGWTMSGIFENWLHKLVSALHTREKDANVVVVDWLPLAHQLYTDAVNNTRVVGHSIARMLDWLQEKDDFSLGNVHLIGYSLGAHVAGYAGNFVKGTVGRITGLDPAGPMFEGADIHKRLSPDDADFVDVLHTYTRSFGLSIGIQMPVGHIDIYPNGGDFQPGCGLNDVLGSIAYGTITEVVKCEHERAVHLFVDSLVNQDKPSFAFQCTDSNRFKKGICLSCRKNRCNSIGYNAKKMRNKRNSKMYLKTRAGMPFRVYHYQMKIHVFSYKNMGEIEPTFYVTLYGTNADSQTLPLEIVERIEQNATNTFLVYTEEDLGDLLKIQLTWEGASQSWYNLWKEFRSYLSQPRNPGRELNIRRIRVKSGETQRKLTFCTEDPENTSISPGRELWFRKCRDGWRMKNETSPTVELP
Test: Endothelial lipase (EL) enzymatic assay with fluorescent substrate A10070 in DMPG vesicles
Type: biochemical
measured_metric: IC50 (nM)
Express the result in nM but write the number alone.

Sample records with IC50:
compound: Cc1ncc(-c2cc3sc(C(C(=O)NCC(=O)NC4CC4)S(=O)(=O)C(C)C)nc3cc2C)cn1 (stereo not shown)
unit_of_measure: nM
IC50: 15

compound: COCCS(=O)(=O)C(C(=O)NCC(=O)NC1CC1)c1nc2cc(F)c(-c3ccc4c(cnn4C)c3)cc2s1 (stereo not shown)
unit_of_measure: nM
IC50: 3

Tell me the measured IC50 of COCCS(=O)(=O)C(C(=O)NCC(=O)NC1CC1)c1nc2cc(-c3cccnc3)ccc2s1 (stereo not shown) , please. 85

Tell me the measured IC50 of COCCOC(=O)Nc1ccc(-c2cc3sc(C(C(=O)NCC(=O)NC4CC4)S(C)(=O)=O)nc3cc2F)cc1 (stereo not shown) , please. 3

Tell me the measured IC50 of CS(=O)(=O)C(C(=O)NCC(=O)NC1CC1)c1nc2cc(-c3ccccc3)ccc2s1 (stereo not shown) , please. 40

Tell me the measured IC50 of CCCS(=O)(=O)C(C(=O)NCC(=O)NC1CC1)c1nc2cc(F)c(-c3ccc(NC(=O)OCc4ccccc4)cc3)cc2s1 (stereo not shown) , please. 1

Tell me the measured IC50 of COCCS(=O)(=O)C(C(=O)NCC(=O)NC1CC1)c1nc2ccc(-c3ccc(C(=O)N4CC(F)C4)cc3)cc2s1 (stereo not shown) , please. 10

Tell me the measured IC50 of COC(=O)Nc1cccc(-c2cc(F)c3nc(C(C(=O)NCC(=O)NC4CC4)S(=O)(=O)C(C)C)sc3c2)c1 (stereo not shown) , please. 6

Tell me the measured IC50 of CN(C)S(=O)(=O)C(C(=O)NCC(=O)NC1CC1)c1nc2c(F)cc(-c3ccc4c(=O)n(C)ccc4c3)cc2s1 (stereo not shown) , please. 1

Tell me the measured IC50 of COCCS(=O)(=O)C(C(=O)NCC(=O)NC1CC1)c1nc2cc(-c3cncc(F)c3)ccc2s1 (stereo not shown) , please. 31
